I'd appreciate it if you could supply growth values for the items below.
tested on: SW-620 colon; experiment: NCI-60 one-dose screen, 48 h (100 = growth as untreated, 0 = no growth, -100 = all killed); conditions: 10 µM unless noted
Compounds without any hit were thinned out: in the full panel of roughly 83,000, 20% have a hit.
Just the number please, in %, no unit attached.

Return the recorded growth value; entry: "C=CCCCN=C=S"
66.5

Return the recorded growth value; entry: "Fc1c[c-]c(-c2ccccn2)c(F)c1.[CH3-].[Pt+2].c1ccc([PH+](c2ccccc2)c2ccccn2)cc1"
-11.6

Return the recorded growth value; entry: C[C@]12CC[C@H]3[C@@H](C[C@@H]4SC(Nc5ccccc5)=N[C@@]45CC(O)CC[C@]35C)[C@@H]1CCC2O (stereo partly specified)
-19.4

Return the recorded growth value; entry: CC(C)(C)N1CC1C#N (stereo unspecified)
103

Return the recorded growth value; entry: "[Cl][Hg][c]1cc(Br)cc(Br)c1"
29

Return the recorded growth value; entry: "ClC1=C(Cl)C(Cl)(C2(Cl)C(Cl)=C(Cl)C(Cl)=C2Cl)C(Cl)=C1Cl"
-52.8

Return the recorded growth value; entry: CC12CCC3C(CCC4Cc5[nH]c6ccccc6c5CC43C)C1CCC2O (stereo unspecified)
11.5

Return the recorded growth value; entry: "C=C1C(=O)O[C@H]2[C@H]1CC/C(COC(=O)C(=O)c1cn(Cc3ccccc3)c3ccccc13)=C\CC[C@@]1(C)O[C@@H]21"
-84.8

Return the recorded growth value; entry: "Cc1cc(N(CCCl)CCCl)ccc1C=Nc1cccnc1"
85.3

Return the recorded growth value; entry: O=C1C2CC=CCC2C(=O)N1SC(Cl)(Cl)Cl (stereo unspecified)
8.03

Return the recorded growth value; entry: "COC(=O)[C@@H](C)C[C@H](Cc1ccccc1)NC(=O)c1cccc([C@@H](C[C@H](C(C)C)N(C)C(=O)[C@@H](NC(=O)[C@H]2CCCCN2C)C(C)C)OC(C)=O)n1"
22

Return the recorded growth value; entry: "[Cl][Hg][c]1cc[c]([Hg][Cl])o1"
12.3

Return the recorded growth value; entry: "CC[S][Hg][Cl]"
106

Return the recorded growth value; entry: "CC(=O)[O][Hg][c]1c(N)c(C)cc(C)c1F"
-19.5

Return the recorded growth value; entry: "COc1cc2c(cc1OCc1ccccc1)C(CC(C)C)=[N+](C)CC2"
93.7

Return the recorded growth value; entry: "CCCC(=O)O[C@@H]1C[C@H]2C[C@@H](O[C@@H]3O[C@@H](C)[C@@H](O)[C@@H](O)[C@H]3OC)C[C@@H](C[C@@H](C)/C=C/C=C\C[C@@H]3O[C@@H](C[C@@H]3C)[C@@H](O)C[C@H]3C[C@@]1(O)C(=O)O3)O2"
87.4

Return the recorded growth value; entry: "O=[N+]([O-])c1cc(I)cc([N+](=O)[O-])c1"
106

Return the recorded growth value; entry: NC(=O)CNc1ccc([As]=[As]c2ccc(NCC(N)=O)cc2)cc1 (stereo unspecified)
24.6

Return the recorded growth value; entry: "Cc1ccc(S(=O)(=O)F)cc1C(=O)O"
109

Return the recorded growth value; entry: "CCCCC1(CCC)C(=O)NC(=S)NC1=O"
109

Return the recorded growth value; entry: "CC(C)CCC1(CCCl)C(=O)NC(=O)NC1=O"
98.9
